EXPERIMENTAL_SYSTEM: recombinant human estrogen receptor ERα ligand binding domain (Homo sapiens, UniProt P03372)
Construct: purchased Invitrogen PV4543
Sequence (P03372 311-547 limits assumed): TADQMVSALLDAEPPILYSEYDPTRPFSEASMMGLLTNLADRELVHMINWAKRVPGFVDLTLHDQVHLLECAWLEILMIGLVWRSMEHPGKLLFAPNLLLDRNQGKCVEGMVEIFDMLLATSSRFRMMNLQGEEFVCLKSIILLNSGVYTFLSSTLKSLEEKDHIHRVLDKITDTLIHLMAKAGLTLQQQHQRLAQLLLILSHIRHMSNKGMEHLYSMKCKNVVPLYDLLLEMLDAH
ASSAY_METHOD_TEXT: LanthaScreen TR-FRET competition binding assay with estrogen receptor ERα ligand binding domain
PARTICULARS: TR-FRET competition with Fluormone ES2, ERα-LBD (GST); read-out: IC50 (nM) ER Reporter
Reported IC50 values for a set of molecules

Some solved cases for reference:
C[C@@H]1Cc2c([nH]c3ccccc23)[C@@H](c2c(F)cc(/C=C/C(=O)O)cc2F)N1CC1CCCC1 = 10 to 250 nM
C[C@@H]1Cc2c([nH]c3cccc(F)c23)[C@@H](c2c(F)cc(/C=C/C(=O)O)cc2F)N1CC1(F)CC1 = 0.1 to 10 nM
C[C@@H]1Cc2c([nH]c3ccccc23)[C@@H](c2c(F)cc(/C=C/C(=O)O)cc2F)N1CC1(F)CCCCC1 = 10 to 250 nM

Turning to the following molecule.
Input line: Query (molecule): C[C@@H]1Cc2c([nH]c3ccccc23)[C@@H](c2c(F)cc(/C=C/C(=O)O)cc2F)N1CC1COC1 ; field requested: IC50
Output line: 10 to 250 nM

---

This listing pairs molecules with measured DC50.
EXPERIMENTAL_SYSTEM: ERα (Homo sapiens, UniProt P03372)
Construct: host or cells: MCF-7
ASSAY_METHOD_TEXT: ERα down-regulation immunofluorescence assay in MCF-7 cells
Format: cell-based
PARTICULARS: immunofluorescence of ERα level, read-out: IC50 (nM) ERα down-degradation

See these solved cases before continuing.
C[C@@H]1Cc2c([nH]c3cccc(F)c23)[C@@H](c2c(F)cc(/C=C/C(=O)O)cc2F)N1CC1(F)CC1 [Example 12] = 0.1 to 10 nM
C[C@H]1Cc2c([nH]c3cccc(F)c23)[C@H](c2c(F)cc(/C=C/C(=O)O)cc2F)N1CC1(F)CC1 [Example 13] = 250 to 1000 nM
C[C@@H]1Cc2c([nH]c3ccccc23)[C@@H](c2c(F)cc(/C=C/C(=O)O)cc2F)N1CC1COC1 [Example 11] = 10 to 250 nM

Input line: Form: Entry = C[C@@H]1Cc2c([nH]c3ccccc23)[C@@H](c2c(F)cc(/C=C/C(=O)O)cc2F)N1CC1CC1 [Example 2] | System = ERα (Homo sapiens, UniProt P03372) | DC50 = ____
Output line: 0.1 to 10 nM

Input line: For ERα (Homo sapiens, UniProt P03372), provide DC50 of C[C@@H]1Cc2c([nH]c3ccccc23)[C@@H](c2c(F)cc(/C=C/C(=O)O)cc2F)N1CC1(F)CC1 [Example 1] please.
Output line: 0.1 to 10 nM

Input line: # query: DC50 | item C[C@@H]1Cc2c([nH]c3ccccc23)[C@@H](c2c(F)cc(/C=C/C(=O)O)cc2F)N1CC1CCCC1 [Example 3] | system: ERα (Homo sapiens, UniProt P03372)
Output line: 10 to 250 nM

Input line: # get_value(readout= DC50, system= ERα (Homo sapiens, UniProt P03372)) for C[C@@H]1Cc2c([nH]c3ccccc23)[C@@H](c2c(F)cc(/C=C/C(=O)O)cc2F)N1CC1(F)CCCCC1 [Example 6]
Output line: 10 to 250 nM
